The entries below come with measured pKi values attached.
Target: delta opioid receptor (Mus musculus, UniProt P32300)
Construct: NG108-15 cell membranes were purchased from Applied Cell Sciences (Rockville, Md.); host or cells: NG108-15 cell membranes
Sequence (P32300 whole entry): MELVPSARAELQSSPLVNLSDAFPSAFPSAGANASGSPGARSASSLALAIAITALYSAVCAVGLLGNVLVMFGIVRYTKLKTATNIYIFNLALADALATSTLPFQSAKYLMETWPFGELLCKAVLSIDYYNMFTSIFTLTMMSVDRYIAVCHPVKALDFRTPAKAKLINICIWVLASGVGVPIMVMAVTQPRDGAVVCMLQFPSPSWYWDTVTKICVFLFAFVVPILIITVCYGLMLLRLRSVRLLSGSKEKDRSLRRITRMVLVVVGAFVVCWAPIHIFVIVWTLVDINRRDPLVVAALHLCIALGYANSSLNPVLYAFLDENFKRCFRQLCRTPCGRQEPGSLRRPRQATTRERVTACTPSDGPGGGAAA
Assay: NG108-15, 24-well delta opioid receptor binding assay
pKi field: float, defined as -log10 of concentration (mol/L).

// worked examples, pKi included
[[record]]
linenotation = "COCc1ccc(Oc2nc(-c3cncnc3)ncc2NC[C@@H]2CCCN2)cc1"
experimentalvalue = 8.05

[[record]]
linenotation = "COc1ccc(Oc2nc(-c3cncc(C#N)c3)ncc2NC[C@@H]2CCCN2)cc1"
experimentalvalue = 9.86


Quick note, pKi for "OCc1ccc(Oc2nc(-c3cncnc3)ncc2NC[C@@H]2CCCN2)cc1" landed at 8.15

Quick note, pKi for "COc1ccc(Oc2nc(-c3cncc(C#N)c3)ncc2NC[C@@H]2CCCN2)cc1F" landed at 9.40

Quick note, pKi for "COc1ccc(Oc2nc(-c3cncc(F)c3)ncc2NC[C@@H]2CCCN2)cc1" landed at 9.73
